chromatographic logP values by entry
Assay Name: HPLC logP
Type: physicochemical
Assay Conditions: Table 1
Hey, just send me the number, nothing else.

Some solved cases for reference:
CON=C(C1=NOCCO1)c1ccccc1Oc1nccc(OCC2CCCC2)n1 [Example 58] :: 3.4
CON=C(C1=NOCCO1)c1ccccc1Oc1nccc(OCCc2ccccc2C(F)(F)F)n1 [Example 20] :: 3.6

Problem: State the recorded chromatographic logP for this entry: CON=C(C1=NOCCO1)c1ccccc1Oc1nccc(NCc2ccccc2)n1 [Example 136]
Result: 1.6

Problem: I am curious: what chromatographic logP value has been reported for CON=C(C1=NOCCO1)c1ccccc1Oc1nccc(OCc2ccccc2)n1 [Example 12] ?
Result: 2.9

Problem: Quick one: chromatographic logP for C=CC(C)Oc1ccnc(Oc2ccccc2C(=NOC)C2=NOCCO2)n1 (centres unmarked) [Example 164] ?
Result: 2.7

---

// reported chromatographic logP per item
Assay Name: HPLC logP
Type: physicochemical

CON=C(C1=NOCCO1)c1ccccc1Oc1nccc(Cl)n1 :: 2
CON=C(C1=NOCCO1)c1ccccc1Oc1nccc(OCC(Cl)(Cl)Cl)n1 :: 3.1

Problem: I'd like to know its chromatographic logP. The compound in question is CON=C(C1=NOCCO1)c1ccccc1Oc1nccc(OC(CF)CF)n1
Result: 2.2

---

Assay Name: HPLC logP
Assay type: physicochemical
Assay Conditions: Table 1
Threshold 3. chromatographic logP below it: y. chromatographic logP at it or above: n.

Problem: Field: below-cutoff. Rule: recorded chromatographic logP strictly less than 3. Subject: CON=C(C1=NOCCO1)c1ccccc1Oc1nccc(OC(C(F)(F)F)C(F)(F)F)n1
Result: n

Problem: Confirm or reject: chromatographic logP of CCCCCCCCCCOc1ccnc(Oc2ccccc2C(=NOC)C2=NOCCO2)n1 lies strictly below 3
Result: n

Problem: # TODO verify chromatographic logP < 3 strictly for this compound: CON=C(C1=NOCCO1)c1ccccc1Oc1nccc(OCC2C(C=C(C)C)C2(C)C)n1 (stereo not drawn)
Result: n

Problem: Does the reported chromatographic logP of the following compound sit strictly below 3? C=CCOc1ccnc(Oc2ccccc2C(=NOC)C2=NOCCO2)n1
Result: y

---

Assay Name: HPLC logP
Assay type: physicochemical
Assay Conditions: Table 1
Overview of recorded chromatographic logP for various compounds
Reply with the value as a number alone.

CON=C(C1=NOCCO1)c1ccccc1Oc1nccc(OCCF)n1 :: 2
CON=C(C1=NOCCO1)c1ccccc1Oc1nccc(OCc2ccc(C)c(Cl)c2)n1 :: 3.7
CCCCCCCOc1ccnc(Oc2ccccc2C(=NOC)C2=NOCCO2)n1 :: 4.2
CON=C(C1=NOCCO1)c1ccccc1Oc1nccc(OC2CCCCC2)n1 :: 3.3
C/C=C\COc1ccnc(Oc2ccccc2C(=NOC)C2=NOCCO2)n1 :: 2.7

Problem: I'd like to know its chromatographic logP. The compound in question is CON=C(C1=NOCCO1)c1ccccc1Oc1nccc(OC2CCCC2)n1
Result: 3

---

System: Plasmopara viticola
Assay Name: Example D: Plasmopara test (grapevine)/protective
Format: in vivo
Assay Conditions: protective, 100 g/ha, 6 days after inoculation, vs untreated control
Observation Type: Efficacy in % (%)
Just the number in %, nothing appended.

Problem: Which measured Efficacy in % value corresponds to CON=C(C1=NOCCO1)c1ccccc1Oc1nccc(OCc2ccccc2)n1 [drawing 38] ?
Result: 100

Problem: Recorded Efficacy in % for CON=C(C1=NOCCO1)c1ccccc1Oc1nccc(OCC(Br)(Br)Br)n1 [drawing 37] , please?
Result: 100

Problem: Name the recorded Efficacy in % for CCCCCOc1ccnc(Oc2ccccc2C(=NOC)C2=NOCCO2)n1 [drawing 40] .
Result: 99

Problem: State the recorded Efficacy in % for this entry: CCCCCCOc1ccnc(Oc2ccccc2C(=NOC)C2=NOCCO2)n1 [drawing 39]
Result: 100
